# Study System: T1, human PD-1 dimer (human PD-1-mFc or human PD-1-hFc) (human, UniProt Q15116 25-170)
# T1 construct: also called hPD-1-mFc; hPD1-hFc
# T1 sequence (Q15116 25-170 C93S): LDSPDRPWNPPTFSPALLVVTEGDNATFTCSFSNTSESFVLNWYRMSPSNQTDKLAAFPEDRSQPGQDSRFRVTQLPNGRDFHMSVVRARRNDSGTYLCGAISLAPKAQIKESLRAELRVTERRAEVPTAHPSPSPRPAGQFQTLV
# Test Name: SPR, mAb captured, 37C;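 further: Real-time Biacore biosensor, PD-1 dimer flowed over anti-PD-1 antibody surface, rate constants fitted to a 1:1 model, KD derived as kd/ka and t½ as ln2/(60·kd)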
Measured Parameter: kon (M⁻¹ s⁻¹)
Write the value in M⁻¹ s⁻¹ as a bare number.

**Query** Reported kon, binder H2aM7798N (antibody, mouse IgG2a, V domains shown, Human variable regions, mouse IgG2a Fc; also called H2M7798N) VH: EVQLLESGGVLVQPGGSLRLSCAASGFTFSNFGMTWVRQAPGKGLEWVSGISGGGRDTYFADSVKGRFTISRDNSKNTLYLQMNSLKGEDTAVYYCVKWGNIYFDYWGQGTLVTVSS VL: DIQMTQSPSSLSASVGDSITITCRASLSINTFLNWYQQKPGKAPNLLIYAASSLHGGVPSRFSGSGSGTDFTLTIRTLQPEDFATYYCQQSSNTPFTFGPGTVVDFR : ____
**Result** 490000
